The origin of these recorded values is paper PMC7534330.

assay_explanation: Pharmacokinetics of five components in rat plasma after oral administration of RPT, LPT and HPT extracts (UHPLC-MS/MS)
test_settings: male, SD, in vivo, 1.9 g/kg, AUC0-∞
Field: AUC(0-inf). Provide a value for each of the molecules that follow.
Answers are plain numbers, in ng·h/mL.

molecule | AUC(0-inf) (ng·h/mL)
COc1cc(C=CC(=O)OC2C(O)C(CO)OC2(CO)OC2OC(CO)C(O)C(O)C2O)cc(OC)c1O (stereo not drawn) [A6, Sibiricose A6] | 572
COc1cc(/C=C/C(=O)O[C@H]2[C@H](O)[C@@H](CO)O[C@@]2(CO)O[C@H]2O[C@H](CO)[C@@H](O)[C@H](O)[C@H]2O)ccc1O [A5, Sibiricose A5] | 553

Look at this molecule and give its reported AUC(0-inf). COc1cc(/C=C/C(=O)O[C@H]2[C@H](O)[C@@H](CO)O[C@@]2(CO)O[C@H]2O[C@H](COC(=O)c3ccc(O)cc3)[C@@H](O)[C@H](O)[C@H]2O)cc(OC)c1OC [TFSA, tenuifoliside A]
297

----------
assay_explanation: Pharmacokinetics of five components in rat plasma after oral administration of RPT, LPT and HPT extracts (UHPLC-MS/MS)
test_settings: male, SD, in vivo, 1.9 g/kg, rat plasma, oral LPT extract equivalent to 1.9 g/kg of RPT extract, mean ± SD, n = 6, read-out: AUC0-t
property_measured: AUC(0-t) (ng·h/mL)
One number for each entry, in ng·h/mL.

Which measured AUC(0-t) value corresponds to "COc1cc(C=CC(=O)O)cc(OC)c1OC" ?
135

----------
Please provide measured Cmax for the entries that follow.
assay_explanation: Pharmacokinetics of five components in rat plasma after oral administration of RPT, LPT and HPT extracts (UHPLC-MS/MS)
test_settings: male, SD, in vivo, 1.9 g/kg, Cmax
Numbers only, in ng/mL.

compound | units_text | Cmax
COc1cc(C=CC(=O)OC2C(O)C(CO)OC2(CO)OC2OC(CO)C(O)C(O)C2O)cc(OC)c1O (stereo not shown) | ng/mL | 183
COc1cc(/C=C/C(=O)O[C@H]2[C@H](O)[C@@H](CO)O[C@@]2(CO)O[C@H]2O[C@H](COC(=O)c3ccc(O)cc3)[C@@H](O)[C@H](O)[C@H]2O)cc(OC)c1OC [TFSA, tenuifoliside A] | ng/mL | 107
COc1cc(/C=C/C(=O)O[C@H]2[C@H](O)[C@@H](CO)O[C@@]2(CO)O[C@H]2O[C@H](CO)[C@@H](O)[C@H](O)[C@H]2O)ccc1O | ng/mL | 169

Quick check: Cmax of COc1cc(C=CC(=O)OCC2OC(OC3(CO)OC(CO)C(O)C3OC(=O)C=Cc3cc(OC)c(O)c(OC)c3)C(O)C(O)C2O)cc(OC)c1O (stereo not shown) ?
74.1

----------
Assign AUCΔ0-t (dose-normalized) to each entry below.
assay_explanation: Pharmacokinetics and absolute bioavailability of five compounds after oral and i.v. administration (UHPLC-MS/MS)
Assay type: in vivo
test_settings: SD, rat, in vivo, iv
One number for each entry, in ng·h/mL.

Recorded AUCΔ0-t (dose-normalized), per entry:
molecule | AUCΔ0-t (dose-normalized) [ng·h/mL]
COc1cc(C=CC(=O)OCC2OC(OC3(CO)OC(CO)C(O)C3OC(=O)C=Cc3cc(OC)c(O)c(OC)c3)C(O)C(O)C2O)cc(OC)c1O (stereo not shown) [DSS, 3,6′-disinapoyl sucrose] | 106.32
COc1cc(/C=C/C(=O)O[C@H]2[C@H](O)[C@@H](CO)O[C@@]2(CO)O[C@H]2O[C@H](CO)[C@@H](O)[C@H](O)[C@H]2O)ccc1O [A5, Sibiricose A5] | 368.32
COc1cc(C=CC(=O)OC2C(O)C(CO)OC2(CO)OC2OC(CO)C(O)C(O)C2O)cc(OC)c1O (stereo not shown) [A6, Sibiricose A6] | 299.15

Alright, here's another molecule for you.
Fill blank: measured AUCΔ0-t (dose-normalized) of the molecule COc1cc(/C=C/C(=O)O[C@H]2[C@H](O)[C@@H](CO)O[C@@]2(CO)O[C@H]2O[C@H](COC(=O)c3ccc(O)cc3)[C@@H](O)[C@H](O)[C@H]2O)cc(OC)c1OC [TFSA, tenuifoliside A] is ____.
163.79

----------
I'd appreciate it if you could supply Freeze-thaw stability, Mean values for the items below.
assay_explanation: Stability of the five analytes in rat plasma
Type: in vitro ADME
test_settings: rat, 1600 ng/mL
Method: Stock standards of A5, A6, DSS, TFSA, TMCA and IS were prepared in methanol at a concentration of 1 mg/mL. A series of working standard solutions of the targeted compounds ranging from 10 to 20,000 ng/mL and the IS solution at 600 ng/mL were prepared by diluting the stock solutions with methanol and maintained at −20 °C. […]
Give bare numbers, in %.

Here is how some molecules turned out for Freeze-thaw stability, Mean.
molecule | Freeze-thaw stability, Mean, %
COc1cc(/C=C/C(=O)O[C@H]2[C@H](O)[C@@H](CO)O[C@@]2(CO)O[C@H]2O[C@H](CO)[C@@H](O)[C@H](O)[C@H]2O)ccc1O | 101.6
COc1cc(C=CC(=O)OC2C(O)C(CO)OC2(CO)OC2OC(CO)C(O)C(O)C2O)cc(OC)c1O (stereo not shown) | 98.3
COc1cc(C=CC(=O)OCC2OC(OC3(CO)OC(CO)C(O)C3OC(=O)C=Cc3cc(OC)c(O)c(OC)c3)C(O)C(O)C2O)cc(OC)c1O (stereo not shown) | 99.7

// switching to the query molecule
Returns the measured Freeze-thaw stability, Mean for the input molecule. Input: COc1cc(/C=C/C(=O)O[C@H]2[C@H](O)[C@@H](CO)O[C@@]2(CO)O[C@H]2O[C@H](COC(=O)c3ccc(O)cc3)[C@@H](O)[C@H](O)[C@H]2O)cc(OC)c1OC [TFSA, tenuifoliside A]
97.4

----------
Record form. Attribute: half-life. Fill in for each entry.
assay_explanation: Pharmacokinetics and absolute bioavailability of five compounds after oral and i.v. administration (UHPLC-MS/MS)
Type: in vivo
test_settings: SD, rat, in vivo, iv
Answers are plain numbers, in min.

compound | units_text | half-life
COc1cc(/C=C/C(=O)O[C@H]2[C@H](O)[C@@H](CO)O[C@@]2(CO)O[C@H]2O[C@H](COC(=O)c3ccc(O)cc3)[C@@H](O)[C@H](O)[C@H]2O)cc(OC)c1OC [TFSA, tenuifoliside A] | min | 29.4
COc1cc(C=CC(=O)OCC2OC(OC3(CO)OC(CO)C(O)C3OC(=O)C=Cc3cc(OC)c(O)c(OC)c3)C(O)C(O)C2O)cc(OC)c1O (stereo not shown) | min | 58.8
COc1cc(C=CC(=O)OC2C(O)C(CO)OC2(CO)OC2OC(CO)C(O)C(O)C2O)cc(OC)c1O (stereo not shown) | min | 35.4

Now consider the entry below.
Which half-life reading was recorded for the compound "COc1cc(/C=C/C(=O)O[C@H]2[C@H](O)[C@@H](CO)O[C@@]2(CO)O[C@H]2O[C@H](CO)[C@@H](O)[C@H](O)[C@H]2O)ccc1O" ?
73.2

----------
assay_explanation: Pharmacokinetics and absolute bioavailability of five compounds after oral and i.v. administration (UHPLC-MS/MS)
Type: in vivo
test_settings: SD, rat, in vivo, po
property_measured: CΔmax (dose-normalized) (ng/mL)
Answers are plain numbers, in ng/mL.

Known CΔmax (dose-normalized) results, listed for orientation:
molecule | CΔmax (dose-normalized) / ng/mL
COc1cc(/C=C/C(=O)O[C@H]2[C@H](O)[C@@H](CO)O[C@@]2(CO)O[C@H]2O[C@H](CO)[C@@H](O)[C@H](O)[C@H]2O)ccc1O | 9.21
COc1cc(C=CC(=O)OC2C(O)C(CO)OC2(CO)OC2OC(CO)C(O)C(O)C2O)cc(OC)c1O (stereo not shown) | 4.95

Hi! Can you tell me CΔmax (dose-normalized) for each of these molecules?
1. COc1cc(C=CC(=O)OCC2OC(OC3(CO)OC(CO)C(O)C3OC(=O)C=Cc3cc(OC)c(O)c(OC)c3)C(O)C(O)C2O)cc(OC)c1O (stereo not shown)
2. COc1cc(/C=C/C(=O)O[C@H]2[C@H](O)[C@@H](CO)O[C@@]2(CO)O[C@H]2O[C@H](COC(=O)c3ccc(O)cc3)[C@@H](O)[C@H](O)[C@H]2O)cc(OC)c1OC [TFSA, tenuifoliside A]

[4.39, 1.88]

----------
Please respond with reported half-life for every item in the list.
assay_explanation: Pharmacokinetics and absolute bioavailability of five compounds after oral and i.v. administration (UHPLC-MS/MS)
Assay type: in vivo
test_settings: SD, rat, in vivo, po
One number for each entry, in min.

molecule | data_value
COc1cc(/C=C/C(=O)O[C@H]2[C@H](O)[C@@H](CO)O[C@@]2(CO)O[C@H]2O[C@H](COC(=O)c3ccc(O)cc3)[C@@H](O)[C@H](O)[C@H]2O)cc(OC)c1OC [TFSA, tenuifoliside A] | 55.2
COc1cc(C=CC(=O)OCC2OC(OC3(CO)OC(CO)C(O)C3OC(=O)C=Cc3cc(OC)c(O)c(OC)c3)C(O)C(O)C2O)cc(OC)c1O (stereo not shown) [DSS, 3,6′-disinapoyl sucrose] | 60.6
COc1cc(C=CC(=O)OC2C(O)C(CO)OC2(CO)OC2OC(CO)C(O)C(O)C2O)cc(OC)c1O (stereo not shown) [A6, Sibiricose A6] | 37.2

Lab note: next molecule to report on.
Data request, read-out half-life, for COc1cc(/C=C/C(=O)O[C@H]2[C@H](O)[C@@H](CO)O[C@@]2(CO)O[C@H]2O[C@H](CO)[C@@H](O)[C@H](O)[C@H]2O)ccc1O [A5, Sibiricose A5]
76.2
